- Test system: SCC-4
- procedure.text: Antiproliferative activity against human SCC-4 cells after 10 days
- Assay type: functional, cell-based
- reported.conditions: SCC-4, 240 h
measured.parameter: IC50 (µM)
Numbers only, in µM.

Data point: Cc1cn(CCN2CCN(c3ccccc3-c3cc(C#N)cc(C(=O)NCCCN4CCCC4)c3)CC2)c2ccccc12 ; IC50 = 3.59

----------
- Tested on: HCT-8
- procedure.text: Antiproliferative activity against human HCT-8 cells after 10 days
- Type: functional, cell-based
- reported.conditions: HCT-8, 240 h
measured.parameter: pIC50
Numbers only, as −log10 of the molar value.

Data point: Cc1cn(CCN2CCN(c3ccccc3-c3cc(C#N)cc(C(=O)NCCCN4CCCC4)c3)CC2)c2ccccc12 ; pIC50 = 5.60
